- PROCEDURE DETAILS: Intrinsic clearance in Sprague-Dawley rat liver microsomes
- Assay type: ADME, Microsome

COMPOUND STRUCTURE	microsomal CLint
COc1ccc2[nH]c(C)c(CC(=O)N[C@@H](CCCCCC(C)=O)c3ncc(-c4ccccc4)[nH]3)c2c1	> 400 µL/min/mg

###

- TARGET OF ASSAY: Protein deacetylase HDAC6 (Homo sapiens)
- Sequence (Q9UBN7 whole entry): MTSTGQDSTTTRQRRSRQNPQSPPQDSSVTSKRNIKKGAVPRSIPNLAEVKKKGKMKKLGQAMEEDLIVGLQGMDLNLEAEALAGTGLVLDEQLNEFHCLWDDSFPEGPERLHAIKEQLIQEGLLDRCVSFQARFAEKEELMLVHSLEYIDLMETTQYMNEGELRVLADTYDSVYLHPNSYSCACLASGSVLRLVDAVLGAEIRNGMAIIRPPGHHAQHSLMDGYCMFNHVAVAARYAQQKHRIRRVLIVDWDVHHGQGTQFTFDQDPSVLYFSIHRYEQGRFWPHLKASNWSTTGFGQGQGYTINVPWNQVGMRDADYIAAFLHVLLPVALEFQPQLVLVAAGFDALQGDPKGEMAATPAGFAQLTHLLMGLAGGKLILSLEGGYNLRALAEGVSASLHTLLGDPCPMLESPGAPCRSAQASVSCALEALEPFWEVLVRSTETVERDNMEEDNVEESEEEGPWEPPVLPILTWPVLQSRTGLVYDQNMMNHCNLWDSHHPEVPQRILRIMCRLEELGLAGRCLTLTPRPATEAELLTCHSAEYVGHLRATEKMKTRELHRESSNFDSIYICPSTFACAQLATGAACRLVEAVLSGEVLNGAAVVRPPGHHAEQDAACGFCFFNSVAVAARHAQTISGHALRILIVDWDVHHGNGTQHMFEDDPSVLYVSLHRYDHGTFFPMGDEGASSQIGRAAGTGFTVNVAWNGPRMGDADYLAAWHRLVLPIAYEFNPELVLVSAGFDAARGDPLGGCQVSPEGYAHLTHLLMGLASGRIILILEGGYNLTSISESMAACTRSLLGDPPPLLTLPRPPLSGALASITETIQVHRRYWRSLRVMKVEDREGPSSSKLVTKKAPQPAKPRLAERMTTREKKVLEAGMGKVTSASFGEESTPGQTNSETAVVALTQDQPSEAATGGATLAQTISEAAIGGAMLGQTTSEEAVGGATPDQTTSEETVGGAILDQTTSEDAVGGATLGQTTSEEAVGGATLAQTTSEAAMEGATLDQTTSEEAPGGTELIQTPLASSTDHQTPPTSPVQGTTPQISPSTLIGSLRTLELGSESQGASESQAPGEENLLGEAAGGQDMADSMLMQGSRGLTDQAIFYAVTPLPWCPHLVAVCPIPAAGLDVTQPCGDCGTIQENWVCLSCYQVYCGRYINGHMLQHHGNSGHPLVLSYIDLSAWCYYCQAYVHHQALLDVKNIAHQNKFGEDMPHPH
Below: a set of entries, each annotated with reported IC50.

COMPOUND STRUCTURE	TARGET OF ASSAY	IC50 [nM]
COc1ccc2[nH]c(C)c(CC(=O)N[C@@H](CCCCCC(C)=O)c3ncc(-c4ccccc4)[nH]3)c2c1	Protein deacetylase HDAC6 (Homo sapiens)	340
COc1ccc2[nH]c(C)c(CC(=O)N[C@@H](CCCCCC(C)=O)c3nc4ccc(Cl)cc4[nH]3)c2c1	Protein deacetylase HDAC6 (Homo sapiens)	970

###

- System: Mus musculus
- PROCEDURE DETAILS: Toxicity against human HCT116 cells xenografted BALB/c mouse assessed as body weight loss at 25 mg/kg, ip administered 5 days per week for 2.5 weeks
- Format: organism-based, HCT-116
- Set-up: dose 25 mg/kg, route intraperitoneal
- CONDITION PARAMETERS: in vivo

COMPOUND STRUCTURE	TARGET OF ASSAY	Activity
Nc1ccccc1NC(=O)c1ccc(CNC(=O)OCc2cccnc2)cc1	Mus musculus	< 10%

###

- TARGET OF ASSAY: Histone deacetylase 7 (Homo sapiens)
- Sequence (Q8WUI4 whole entry): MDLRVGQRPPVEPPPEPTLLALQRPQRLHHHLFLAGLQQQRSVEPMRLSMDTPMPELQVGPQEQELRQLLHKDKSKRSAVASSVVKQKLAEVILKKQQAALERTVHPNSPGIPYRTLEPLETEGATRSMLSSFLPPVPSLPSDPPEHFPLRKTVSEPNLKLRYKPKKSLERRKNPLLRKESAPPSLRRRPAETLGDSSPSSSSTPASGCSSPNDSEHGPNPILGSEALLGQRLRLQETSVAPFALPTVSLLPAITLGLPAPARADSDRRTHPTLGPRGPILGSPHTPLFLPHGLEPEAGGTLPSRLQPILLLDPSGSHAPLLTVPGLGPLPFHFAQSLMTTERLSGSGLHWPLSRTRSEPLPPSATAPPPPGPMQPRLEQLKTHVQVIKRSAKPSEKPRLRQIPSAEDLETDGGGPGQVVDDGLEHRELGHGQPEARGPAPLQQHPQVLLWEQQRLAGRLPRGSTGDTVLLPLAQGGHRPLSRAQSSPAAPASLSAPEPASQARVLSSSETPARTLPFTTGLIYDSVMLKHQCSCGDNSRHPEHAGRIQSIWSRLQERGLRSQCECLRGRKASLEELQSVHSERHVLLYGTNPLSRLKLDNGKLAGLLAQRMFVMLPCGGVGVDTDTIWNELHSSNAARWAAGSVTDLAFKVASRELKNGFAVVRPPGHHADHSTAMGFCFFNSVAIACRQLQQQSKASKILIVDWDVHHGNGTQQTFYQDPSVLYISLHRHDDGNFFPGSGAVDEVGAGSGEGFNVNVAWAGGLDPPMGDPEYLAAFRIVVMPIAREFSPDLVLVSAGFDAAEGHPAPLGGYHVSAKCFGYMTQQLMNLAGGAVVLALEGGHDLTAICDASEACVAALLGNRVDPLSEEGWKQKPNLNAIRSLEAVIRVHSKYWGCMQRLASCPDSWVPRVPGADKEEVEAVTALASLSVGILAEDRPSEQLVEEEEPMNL
ENDPOINT NAME: IC50

COMPOUND STRUCTURE	OBSERVED
CCC(=O)CCCCC[C@H](NC(=O)Cc1c(C)[nH]c2ccc(OC)cc12)c1ncc(-c2ccccc2)[nH]1	> 10 µM
COc1ccc2[nH]c(C)c(CC(=O)N[C@@H](CCCCCC(C)=O)c3ncc(-c4ccccc4)[nH]3)c2c1	> 10 µM

###

- TARGET OF ASSAY: Histone deacetylase 4 (Homo sapiens, UniProt P56524)
- Sequence (P56524 whole entry): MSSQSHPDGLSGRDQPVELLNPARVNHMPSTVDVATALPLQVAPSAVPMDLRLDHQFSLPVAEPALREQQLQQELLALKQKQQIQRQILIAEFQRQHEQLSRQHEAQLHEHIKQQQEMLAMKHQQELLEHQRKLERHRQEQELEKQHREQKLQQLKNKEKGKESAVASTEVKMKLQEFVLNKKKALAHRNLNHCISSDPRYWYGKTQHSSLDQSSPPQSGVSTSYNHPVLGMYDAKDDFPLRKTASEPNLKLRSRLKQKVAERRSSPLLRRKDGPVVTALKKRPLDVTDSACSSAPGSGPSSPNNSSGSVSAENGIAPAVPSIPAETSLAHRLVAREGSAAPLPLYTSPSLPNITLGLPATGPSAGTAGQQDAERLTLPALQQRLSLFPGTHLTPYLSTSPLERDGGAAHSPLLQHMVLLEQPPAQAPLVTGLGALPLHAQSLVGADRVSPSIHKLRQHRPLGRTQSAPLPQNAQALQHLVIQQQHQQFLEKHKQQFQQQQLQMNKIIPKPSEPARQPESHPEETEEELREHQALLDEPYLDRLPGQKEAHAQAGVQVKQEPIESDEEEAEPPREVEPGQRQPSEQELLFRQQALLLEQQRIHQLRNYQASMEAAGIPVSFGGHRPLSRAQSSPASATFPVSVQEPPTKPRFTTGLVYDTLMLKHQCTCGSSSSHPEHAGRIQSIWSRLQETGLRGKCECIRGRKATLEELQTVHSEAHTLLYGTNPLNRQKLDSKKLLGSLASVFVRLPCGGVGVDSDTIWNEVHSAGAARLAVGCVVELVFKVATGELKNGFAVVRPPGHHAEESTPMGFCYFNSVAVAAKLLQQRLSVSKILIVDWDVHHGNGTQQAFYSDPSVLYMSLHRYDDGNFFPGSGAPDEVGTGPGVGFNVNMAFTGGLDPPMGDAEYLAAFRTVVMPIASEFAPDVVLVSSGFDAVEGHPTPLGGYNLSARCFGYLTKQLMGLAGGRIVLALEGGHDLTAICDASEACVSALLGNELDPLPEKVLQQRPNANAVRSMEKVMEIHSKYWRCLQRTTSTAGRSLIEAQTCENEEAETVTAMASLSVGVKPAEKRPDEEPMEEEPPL
- PROCEDURE DETAILS: Inhibition of HDAC4 expressed in Escherichia coli
Below: a set of entries, each annotated with reported IC50.
ENDPOINT NAME: IC50

COMPOUND STRUCTURE	OBSERVED
CCC(=O)CCCCC[C@H](NC(=O)Cc1c(C)[nH]c2ccc(OC)cc12)c1ncc(-c2ccccc2)[nH]1	> 10 µM
COc1ccc2[nH]c(C)c(CC(=O)N[C@@H](CCCCCC(C)=O)c3nc4ccc(Cl)cc4[nH]3)c2c1	> 10 µM
COc1ccc2[nH]c(C)c(CC(=O)N[C@@H](CCCCCC(C)=O)c3ncc(-c4ccccc4)[nH]3)c2c1	> 10 µM

###

Below: a set of entries, each annotated with reported MTD.
- PROCEDURE DETAILS: Toxicity in ip dosed BALB/c mouse assessed as maximum tolerated dose
- Assay type: organism-based
- CONDITION PARAMETERS: in vivo

COMPOUND STRUCTURE	MTD
COc1ccc2[nH]c(C)c(CC(=O)N[C@@H](CCCCCC(C)=O)c3ncc(-c4ccccc4)[nH]3)c2c1	60 mg/kg
Nc1ccccc1NC(=O)c1ccc(CNC(=O)OCc2cccnc2)cc1	25 mg/kg

###

Recorded IC50 values (Histone deacetylase 1 (Homo sapiens)) are given below.

COMPOUND STRUCTURE	IC50 (µM)
COc1ccc2[nH]c(C)c(CC(=O)N[C@@H](CCCCCC(C)=O)c3nc4ccc(Cl)cc4[nH]3)c2c1	0.67
COc1ccc2[nH]c(C)c(CC(=O)N[C@@H](CCCCCC(C)=O)c3ncc(-c4ccccc4)[nH]3)c2c1	0.059
CC(=O)CCCCC[C@H](NC(=O)CCN1CCCCC1)C(=O)Nc1cnc2ccccc2c1.Cl.Cl	0.14
CCC(=O)CCCCC[C@H](NC(=O)Cc1c(C)[nH]c2ccc(OC)cc12)c1ncc(-c2ccccc2)[nH]1	0.026

###

- PROCEDURE DETAILS: Intrinsic clearance in human liver microsomes
- Type: ADME, Microsome

COMPOUND STRUCTURE	microsomal CLint
COc1ccc2[nH]c(C)c(CC(=O)N[C@@H](CCCCCC(C)=O)c3ncc(-c4ccccc4)[nH]3)c2c1	> 400 µL/min/mg

###

- Tested on: G-401
- PROCEDURE DETAILS: Antiproliferative activity against human G401 cells by CellTiter-Blue cell viability assay
- Type: functional, cell-based
Below: a set of entries, each annotated with reported IC50.

COMPOUND STRUCTURE	TARGET OF ASSAY	IC50 (nM)
Nc1ccccc1NC(=O)c1ccc(CNC(=O)OCc2cccnc2)cc1	G-401	1300
COc1ccc2[nH]c(C)c(CC(=O)N[C@@H](CCCCCC(C)=O)c3nc4ccc(Cl)cc4[nH]3)c2c1	G-401	7500
COc1ccc2[nH]c(C)c(CC(=O)N[C@@H](CCCCCC(C)=O)c3ncc(-c4ccccc4)[nH]3)c2c1	G-401	960
CCC(=O)CCCCC[C@H](NC(=O)Cc1c(C)[nH]c2ccc(OC)cc12)c1ncc(-c2ccccc2)[nH]1	G-401	250
